Values from patent US7067117

- ASSAYED_TARGET: chemokine receptors on THP-1 cells
- METHOD_NOTES: cell-based or functional assay
Bridge positions count the residues as written; N and C are the ends. Square brackets hold non-standard residues; d marks the D form. Ends that are not written are not given here.
MEASURE: average ED50 for inhibition of THP-1 migration induced by each of the chemokines (µM)

Field: example entries. Status: answers known.
BINDER	UOM	DATA_VALUE
EICLDPKQKWVQ [Leu4peptide 3(1-12)[MCP-1]]	µM	5
EICADPKQKWIQ [Ile11peptide 3(1-12)[MCP-1]]	µM	5
EICLDPKQKWIQ (also called Leu4Ile11pep3; Leu4Ile11peptide 3[MCP-1]) [Leu4Ile11peptide 3(1-12)[MCP-1]]	µM	2
WVQ [Peptide 3(10-12)[MCP-1], i.e., WVQ]	µM	2
EICADPSEEWVQ (not fully specified, also called Ser7Glu8Glu9pep3) [Ser7Glu8Glu9peptide 3(1-12)[MCP-1]]	µM	6

a. WIQ
b. EICADPSQKWVQ (Mutant of peptide 3; also called Ser7pep3) [Ser7peptide 3(1-12)[MCP-1]]
c. EICADP [peptide 3(1-6)[MCP-1]]
d. CADPKQKWVQ (also called Pep3[3-12]; Pep3(3-12)[MCP-1]) [peptide 3(3-12)[MCP-1]]
e. [dC][dQ][dV][dW][dK][dQ][dK][dP][dD][dA][dC] (disulfide 1-11 (inferred); not fully specified; printed as -CQVWKQKPDAC--) [CRD-Cys13pep3[3-12]]
Put these in order: smallest average ED50 for inhibition of THP-1 migration induced by each of the chemokines first, largest last. Write the labels out in the order the request specifies.
e, a, b, d, c
